FYI, the data here is from PubChem BioAssay (Tox21).

Test: qHTS assay to identify small molecule agonists of the AP-1 signaling pathway - cell viability counter screen (AID 1159525); further: nearly all actives have a fitted effect of over 55% in size
Details: ME-180 (cervical carcinoma) AP-1-bla cells viability, ATP luminescence, 5 h; series mostly up to 76.8 µM
Inconclusive results are not listed. Active and inactive are the calls of the source. The call rests on the fitted dose curve.
Write down one outcome, taken from active, inactive

# outcome recorded in this test, key = CCSC(C)CC1CC(=O)C(/C(CC)=N/OC/C=C/Cl)=C(O)C1 (stereo not drawn)
inactive

# outcome recorded in this test, key = CCOP(=S)(OCC)SCCS(=O)(=O)CC
inactive

# outcome recorded in this test, key = CC(C)(O)c1cnn2c(-c3ccc(F)c(-c4c(F)cccc4C#N)c3)cnc2n1
inactive

Further cases:
# outcome recorded in this test, key = Nc1ccc(Cl)cc1C(=O)c1ccccc1
inactive

# outcome recorded in this test, key = Cc1cc(SCc2sc(-c3ccc(C(F)(F)F)c(F)c3)nc2C)ccc1OCC(=O)O
inactive

# outcome recorded in this test, key = CCOP(=S)(OCC)SCS(=O)(=O)CC
inactive

# outcome recorded in this test, key = CC(C)OC(=O)C(O)(c1ccc(Cl)cc1)c1ccc(Cl)cc1
active

# outcome recorded in this test, key = N#CC(Cl)Cl
inactive

* * *

Experiment: qHTS assay to identify small molecule antagonists of the TGF-beta/Smad signaling pathway - cell viability counter screen (AID 1346824); further: nearly all actives have a fitted effect of over 50% in size
Conditions: SBE-bla HEK293T viability, CellTiter-Glo luminescence; series mostly up to 76.8 µM
Inconclusive results are not listed. Activity calls are given as the source filed them. Calls come from the whole dose curve; as a rule, active = well fitted cell-killing curve with a large enough effect in the repeat runs; inconclusive = weak or mixed curves; inactive = flat fitted curve, though single readings scatter.
Write down one outcome, taken from label 1 for active, label 0 for inactive

Example results:
# outcome recorded in this test, key = [CH3][Hg][Cl]
label 0

# outcome recorded in this test, key = C[C@]12CC[C@H]3[C@@H](CCC4=CC(=O)CC[C@@]43C)[C@@H]1CC[C@@H]2O
label 0

# outcome recorded in this test, key = CCSC(C)CC1CC(=O)C(/C(CC)=N/OC/C=C/Cl)=C(O)C1 (configuration not stated)
label 0

# outcome recorded in this test, key = OC(c1ccc(Cl)cc1)(c1ccc(Cl)cc1)C(Cl)(Cl)Cl
label 0

# outcome recorded in this test, key = CC(=O)Nc1ccc2c(c1)Cc1ccccc1-2
label 0

# outcome recorded in this test, key = CN(C)C(=S)[S-].CN(C)C(=S)[S-].[Cu+2]
label 1

# outcome recorded in this test, key = N#C/C=C/C#N
label 0

# outcome recorded in this test, key = c1ccc2cc3c(cc2c1)-c1cccc2cccc-3c12
label 0

# outcome recorded in this test, key = CCOP(=O)(NC(C)C)Oc1ccc(SC)c(C)c1 (configuration not stated)
label 0

# outcome recorded in this test, key = COc1cccc2c1C(=O)c1c(O)c3c(c(O)c1C2=O)C[C@@](O)(C(=O)CO)CC3OC1CC(N2CCOC(OC)C2)C(O)C(C)O1 (some centres not stated)
label 0

Further cases:
# outcome recorded in this test, key = FC(Cl)(Cl)Cl
label 0

# outcome recorded in this test, key = CCCCOCN(C(=O)CCl)c1c(CC)cccc1CC
label 0

* * *

Test: qHTS assay to identify small molecule agonists of the hypoxia (HIF-1) signaling pathway - cell viability counter screen (AID 1224844); further: nearly all actives have a fitted effect of over 50% in size
Settings: HRE-bla ME-180 viability, CellTiter-Glo luminescence, 17 h; series mostly up to 76.8 µM
Results filed as inconclusive are left out. Calls of active or inactive are those of the source. Calls come from the whole dose curve.
Write down one outcome, taken from label 1 = active, label 0 = inactive

# outcome recorded in this test, key = CN(C)CCc1c[nH]c2cccc(O)c12
label 0

# outcome recorded in this test, key = ClC(Cl)=C(Cl)Cl
label 0

# outcome recorded in this test, key = [CH3][Hg][Cl]
label 1

# outcome recorded in this test, key = CC(C)(C)c1cc([N+](=O)[O-])cc(C(C)(C)C)c1O
label 0

# outcome recorded in this test, key = CCC(C)(C)C(=O)OC1=C(c2ccc(Cl)cc2Cl)C(=O)OC12CCCCC2
label 1

Further cases:
# outcome recorded in this test, key = OC(Cc1ccccc1Cl)(Cn1cncn1)C1(Cl)CC1 (centres undefined)
label 0

# outcome recorded in this test, key = Cc1cc(Cl)ccc1O[C@H](C)C(=O)O
label 0

# outcome recorded in this test, key = N#C/C=C/c1ccccc1
label 0

# outcome recorded in this test, key = COc1ccc([N+](=O)[O-])cc1O
label 0
